assay: small molecules captured by biotinylated probe aFGF10 – biochemical, small-molecule microarray, fluorescence 635/667, stem cell growth factor project, primary screen (AID 1071); conditions: higher = more signal;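 note: score merges 667 nm spot intensity and signal to noise from triplicate slides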
Collected composite z-score values appear next to each entry.

COMPOUND | composite z-score
Cc1cc(C)c(C(O)C2C=CC3C(=O)N(c4ccccc4)C(=O)C3N2Nc2ccc([N+](=O)[O-])cc2)c(C)c1 (stereo unspecified) | 0.453
NC(=O)[C@@H]1[C@H]2C(=O)O[C@H](c3ccccc3)[C@H](c3ccccc3)N2[C@H](c2ccccc2OCCO)[C@@]12C(=O)Nc1ccc(C#CCCO)cc12 | -0.0477
COC(=O)[C@@]1(Cc2ccccc2)[C@H]2c3cc(C(=O)N4CCCC4)n(Cc4ccccc4)c3C[C@H]2CN1C(=O)c1ccccc1 | 0.742
COc1cc(NN2C(C(O)c3ccc(I)cc3)C=CC3C(=O)N(C)C(=O)C32)cc(OC)c1OC (stereo unspecified) | 0.0488
COCCOC(=O)N1C(=O)[C@@]2(c3cc(C#CCC(C(=O)OC)C(=O)OC)ccc31)[C@H](C(=O)N1CCCCCCC1)[C@H]1C(=O)O[C@H](c3ccccc3)[C@H](c3ccccc3)N1[C@@H]2c1ccc(O)cc1 | 0.344
O=C1O[C@H](c2ccccc2)[C@H](c2ccccc2)N2[C@H]1[C@@H](C(=O)N1CCN(c3ncccn3)CC1)[C@]1(C(=O)Nc3ccc(C#CCCO)cc31)[C@H]2c1ccc(OCCO)cc1 | 1.26

----------
target: Albumin (Bos taurus) (UniProt P02769); experiment: compounds binding labelled BSA control protein – biochemical, small-molecule microarray, Alexa647 label, 635/667 nm fluorescence, artefact control for SMM control protein annotation, profiling panel (AID 1118); details: BSA-A647 binding, fluorescence 635 nm, higher = more signal;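 note: score merges 667 nm emission intensity and signal-to-noise per printed compound spot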
Sequence (P02769 whole entry, looked up): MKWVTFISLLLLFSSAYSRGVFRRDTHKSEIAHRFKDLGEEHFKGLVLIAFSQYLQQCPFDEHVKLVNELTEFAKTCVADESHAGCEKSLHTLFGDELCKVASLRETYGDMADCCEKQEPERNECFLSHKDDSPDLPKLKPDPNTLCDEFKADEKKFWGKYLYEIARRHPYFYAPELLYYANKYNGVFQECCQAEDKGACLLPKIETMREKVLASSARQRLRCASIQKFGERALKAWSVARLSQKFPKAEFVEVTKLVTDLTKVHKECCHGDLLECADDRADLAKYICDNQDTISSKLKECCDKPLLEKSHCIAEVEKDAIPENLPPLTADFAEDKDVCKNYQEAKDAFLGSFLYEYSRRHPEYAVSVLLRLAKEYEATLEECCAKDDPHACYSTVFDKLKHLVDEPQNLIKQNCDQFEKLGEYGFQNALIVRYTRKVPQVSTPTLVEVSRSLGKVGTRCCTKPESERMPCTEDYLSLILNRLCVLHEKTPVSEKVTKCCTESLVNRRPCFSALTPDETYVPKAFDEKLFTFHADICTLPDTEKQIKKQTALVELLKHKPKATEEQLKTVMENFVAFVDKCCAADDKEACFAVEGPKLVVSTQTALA
Output Yes for composite z-score not less than 0.5; output No otherwise.

COMPOUND | CAT
O=C1OCC=C[C@H]2OC34C=CCN(CCN5CCOCC5)C(=O)[C@H]3N(CCCCCO)C(=O)[C@@H]4[C@@H]12 (some centres undefined) | No
COC(=O)[C@@]1(Cc2ccccc2)[C@H]2c3cc(C(=O)N4CCCC4)n(Cc4ccccc4)c3C[C@H]2CN1C(=O)c1ccccc1 | Yes
COc1ccc(CCNC(=O)[C@@H]2c3ccccc3C(=O)N(Cc3ccccc3C(F)(F)F)[C@H]2c2ccc(CO)cc2)cc1 | No
CC(C)N1CC=CC23O[C@@H]4C=CCOC(=O)[C@@H]4[C@H]2C(=O)N(CCCCCCO)[C@@H]3C1=O (some centres undefined) | Yes
CCCCCCCCCCC(O)C1C=CC2C(=O)NC(=O)C2N1Nc1ccccn1 (centres undefined) | Yes
O=C1O[C@H](c2ccccc2)[C@H](c2ccccc2)N2[C@H]1[C@@H](C(=O)NC[C@H](O)c1ccccc1)[C@]1(C(=O)Nc3ccccc31)[C@H]2c1ccccc1OCCO | No
O=C1O[C@@H](c2ccccc2)[C@@H](c2ccccc2)N2[C@@H](c3ccc(O)cc3)[C@]3(C(=O)Nc4ccc(C#CC5(O)CCCCCC5)cc43)[C@@H](C(=O)N3CCN(c4ncccn4)CC3)[C@H]12 | Yes
CCCC=C(CCC)[C@@H](NS(=O)(=O)CC)c1ccccc1 | Yes
CC(C)[Si](C#C[Si](C(C)C)(C(C)C)C(C)C)(O[C@H](C)c1cn(Cc2cccc(Cl)c2)nn1)C(C)C | Yes
COc1ccccc1CN1C(=O)c2ccccc2[C@@H](C(=O)NCC(C)C)[C@@H]1c1ccc(CO)cc1 | No
COC(=O)[C@]1(Cc2ccccc2CN=[N+]=[N-])N=C(c2ccc(OCCCO)cc2)O[C@@H]1c1ccccc1CN=[N+]=[N-] | No
CO[C@H]1O[C@H](CO)[C@@H](OC(=O)Nc2cccc(F)c2)[C@H](OC(=O)Nc2ccc3c(c2)OCO3)[C@H]1OC(=O)Nc1ccc2c(c1)OCO2 | No
CCCCCCC#C[Si](O[C@H](c1ccccc1)c1cn(Cc2cccc(Cl)c2)nn1)(C(C)C)C(C)C | No
COc1cc2c(cc1OC)CN(C(=O)[C@@H]1[C@H]3C(=O)O[C@H](c4ccccc4)[C@H](c4ccccc4)N3[C@H](c3ccc(OCCO)cc3)[C@@]13C(=O)Nc1ccc(C#CCCO)cc13)CC2 | No
